Assay: Whole blood stability
Format: in vitro ADME
Details: 1 μM, 37° C., 120 mins
Entries whose Percentage remaining Mouse blood is below 40% take Yes; entries at or above 40% take No.

>>> df
                               input_smiles  class_assignment
0  C=CCOc1cc(O)c(C(=O)N2Cc3ccc(CN4CCN(C)CC4)cc3C2)cc1C(C)C                No
1  COc1cc(O)c(C(=O)N2Cc3ccc(CN4CCN(C)CC4)cc3C2)cc1C(C)C                No
2  CCN(CC)C(=O)Oc1cc(O)c(C(=O)N2Cc3ccc(CN4CCN(C)CC4)cc3C2)cc1C(C)C                No
3  CC(C)c1cc(C(=O)N2Cc3ccc(CN4CCN(C)CC4)cc3C2)c(OC(=O)OC(C)(C)C)cc1OC(=O)OC(C)(C)C               Yes
4  CC(C)c1cc(C(=O)N2Cc3ccc(CN4CCN(C)CC4)cc3C2)c(OC(=O)N(C)C)cc1O                No
5  CC(C)c1cc(C(=O)N2Cc3ccc(CN4CCN(C)CC4)cc3C2)c(OC(=O)N(C)C)cc1OC(=O)N(C)C               Yes
6  CC(C)c1cc(C(=O)N2Cc3ccc(CN4CCN(C)CC4)cc3C2)c(O)cc1OC(=O)N1CCOCC1               Yes
